Tested on: human APOE RNA
ASSAY_METHOD_TEXT: Activity in APOE C57BL/6NTac-Apoeem7250 knock-in mice, single ICV bolus, 8 weeks (Example 11)
Type: in vivo
TEST_PARAMETERS: spinal cord; single ICV bolus 300 μg; 8 weeks post treatment; normalized to mouse Ppia
Strand notation (5' to 3'): a small letter for the sugar, then the base; units joined by * are phosphorothioate-linked, units joined directly phosphodiester-linked; [ ] holds rarer units or linkages, { } end groups; capitals alone tell only the bases. [ms] = mesyl phosphoramidate linkage; e = 2'-O-(2-methoxyethyl) (MOE); k = constrained ethyl (cEt); [5mC] = 5-methylcytosine; d = 2'-deoxy (DNA)
EXPERIMENTAL_READOUT: APOE RNA (% control) Spinal Cord
One number for each entry, in % control.

Each substance below has a reported value. Please supply its APOE RNA (% control) Spinal Cord.
1. 1809741: mixed MOE/cEt gapmer CTTGGTGAATCTTTATTAAAC, sugar eeeeekddddddddddeeeee, linkages ssoooszzsssssszsooss (e[5mC]*eT*eTeGeGkT*dG[ms]dA[ms]dA*dT*d[5mC]*dT*dT*dT*dA[ms]dT*eTeAeA*eA*e[5mC]) [compound 1809741]
2. 1652913: 5-10-5 MOE gapmer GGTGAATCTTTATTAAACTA, linkages soooszssssszsszooss (antisense eG*eGeTeGeA*dA[ms]dT*d[5mC]*dT*dT*dT*dA[ms]dT*dT*dA[ms]eAeAe[5mC]*eT*eA) [compound 1652913]
3. 1681006: 5-10-5 MOE gapmer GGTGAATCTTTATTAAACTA, linkages ssssszsssszzszzssss (antisense eG*eG*eT*eG*eA*dA[ms]dT*d[5mC]*dT*dT*dT[ms]dA[ms]dT*dT[ms]dA[ms]eA*eA*e[5mC]*eT*eA) [compound 1681006]
4. 1681005: 5-10-5 MOE gapmer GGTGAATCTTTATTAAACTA, linkages ssssszsssszzszsssss (antisense eG*eG*eT*eG*eA*dA[ms]dT*d[5mC]*dT*dT*dT[ms]dA[ms]dT*dT[ms]dA*eA*eA*e[5mC]*eT*eA) [compound 1681005]

Result:
[28, 33, 71, 70]
